tested on: U2OS; assay: cell viability relative to DMSO; higher = less toxic; details: 72 h; 10 nM
readout: cell viability

Worked examples follow.
compound=COc1cccc(CN(C(=O)CC(C)(C)C)[C@H]2C[C@@H](C(=O)N3CCNCC3)N(Cc3ccc4c(c3)OCO4)C2)c1 measurement_target=U2OS reported=98%
compound=Nc1cccc(CNC(=O)c2ccc(Oc3ccc(OCc4cccc(F)c4)cc3)nc2)c1 measurement_target=U2OS reported=106%
compound="CCCCC(=O)O[C@]1(C(=O)CO)CC[C@H]2[C@@H]3CCC4=CC(=O)CC[C@]4(C)[C@H]3[C@@H](O)C[C@@]21C [hydrocortisone-valerate]" measurement_target=U2OS reported=97.1%

Returns the measured cell viability for the input compound. Input: CC1(C)CC(=O)C(C2C3=C(CC(C)(C)CC3=O)Oc3ccccc32)C(=O)C1 (centres undefined) 101%

----------
Listed next: entries and their corresponding cell viability.
system: U2OS; assay: cell viability relative to DMSO; higher = less toxic; conditions: 72 h; 1 nM
For clarity, give the value followed by its unit.

See these solved cases before continuing.
compound=N=C(N)SCc1ccc(B(O)O)cc1 readout="cell viability" reported=102%
compound=CN(C)CC[C@@H](c1ccc(Cl)cc1)c1ccccn1 readout="cell viability" reported=98%
compound="Oc1cc2c(cc1O)[C@H]1c3ccccc3CN[C@@H]1CC2 (racemic) [dihydrexidine]" readout="cell viability" reported=101%
compound="NC(=O)CCCCC1CCSS1 (stereo not given) [lipoamide]" readout="cell viability" reported=102%
compound=CCN[C@@H](C)Cc1cccc(C(F)(F)F)c1 readout="cell viability" reported=93.5%
compound="CCNCC(O)c1cccc(O)c1 (stereo not given)" readout="cell viability" reported=98.9%

So what's the measured cell viability for this one? CCCN(CCC)S(=O)(=O)c1ccc(C(=O)O)cc1 97.5%

Next: C#C[C@]1(OC(C)=O)CC[C@H]2[C@@H]3CCC4=CC(=NO)CC[C@@H]4[C@H]3CC[C@@]21CC (mixture of isomers) [norgestimate] 97%

Then what about the compound Clc1cccc2c1CN(C1=NCCN1)C2 ? 101%

Next compound up: CCOC(=O)Nc1nc2ccccc2[nH]1 97.1%

----------
test system: HepG2; test: cell viability relative to DMSO; higher = less toxic; conditions: 72 h; 1000 nM
readout: cell viability (%)
Dear colleague, please return just the value in %, with no unit written.

Worked set:
compound="COC(c1ccccc1)(c1ccccc1)[C@H](Oc1nc(C)cc(C)n1)C(=O)O [ambrisentan]" measurement_target=HepG2 reported=107
compound="Cc1cc(O)cc2c1O[C@](C)(CCC[C@H](C)CCC[C@H](C)CCCC(C)C)CC2 [D-delta-tocopherol]" measurement_target=HepG2 reported=103
compound="O=C(N/N=C/c1ccc([N+](=O)[O-])o1)c1cc([N+](=O)[O-])cc([N+](=O)[O-])c1O [nifursol]" measurement_target=HepG2 reported=93.7
compound=CNc1nc(C)nc(N[C@H]2CCC[C@@H](C(=O)NCc3ccc(C#N)cc3C(F)(F)F)C2)n1 measurement_target=HepG2 reported=94.7
compound="Oc1cc(O)c2c(c1)O[C@H](c1ccc(O)c(O)c1)[C@@H](O)C2 [cianidanol]" measurement_target=HepG2 reported=102
compound=Cn1cc(-c2cnn3c(N)c(Br)c([C@@H]4CCCNC4)nc23)cn1 measurement_target=HepG2 reported=75

Which cell viability value is on record for Cc1nnc(C(=O)NC(C)(C)c2nc(C(=O)NCc3ccc(F)cc3)c(O)c(=O)n2C)o1 [raltegravir] ? 118

And for O=c1c(O)c(-c2ccc(O)c(O)c2)oc2cc(O)cc(O)c12 [quercetin] ? 99.1

Quick one: C=C1CC[C@H](O)C/C1=C/C=C1\CCC[C@]2(C)[C@@H]([C@H](C)/C=C/[C@H](C)C(C)C)CC[C@@H]12 [ergocalciferol] 97.5

# iterate: O[C@H]1[C@H](O)[C@@H](O)CN2CC[C@H](O)[C@H]12 [castanospermine] 110

Same lookup for Cn1ncnc1[C@H]1c2n[nH]c(=O)c3cc(F)cc(c23)N[C@@H]1c1ccc(F)cc1 [talazoparib] , please. 71.4

Consider next the compound CCOC(=O)C1=C(C)NC(C)=C(C(=O)OCC)C1c1ccccc1/C=C/C(=O)OC(C)(C)C [lacidipine] in the same way. 114

Try the compound CCCCCOc1ccc(-c2cc(-c3ccc(C(=O)N[C@H]4C[C@@H](O)[C@@H](O)NC(=O)[C@@H]5[C@@H](O)[C@@H](C)CN5C(=O)[C@H]([C@H](O)CC(N)=O)NC(=O)[C@H]([C@H](O)[C@@H](O)c5ccc(O)c(OS(=O)(=O)O)c5)NC(=O)[C@@H]5C[C@@H](O)CN5C(=O)[C@H]([C@@H](C)O)NC4=O)cc3)no2)cc1 [micafungin] 81.8

Would you mind doing CCCCc1ccc(C(N)=O)nc1 [bupicomide] as well? 116

Then CC(CN1c2ccccc2Sc2ccccc21)N(C)C (stereo unspecified) [promethazine] ? 103

Now consider CNC[C@H](O)c1ccc(O)c(O)c1 [epinephrine] . 94.4

----------
Recorded cell viability, one value per entry.
tested on: Caco-2; assay: cell viability relative to DMSO; higher = less toxic; settings: 72 h; 100 nM
Unit % implied. Number only.

// returns reported cell viability for input CC(=O)N[C@@H](CCC(N)=O)C(=O)O [aceglutamide] 84.5

----------
test system: HepG2; test: relative viability EC50 (midpoint between 100% and the lowest measured viability); higher = less toxic; details: 72 h
readout: relative viability EC50

line_notation=C[C@H]1NC(=O)NC1=O readout="relative viability EC50" reported="> 10 µM"

Which relative viability EC50 is listed for CC(=O)c1cnc2ccc(-c3cc(Cl)c(O)c(Cl)c3)nc2c1N[C@H]1CC[C@H](CN(C)C)CC1 ? 0.0253 µM

Now this one: c1cc(CN2CCCNCCNCCCNCC2)ccc1CN1CCCNCCNCCCNCC1 > 10 µM

Now the compound Oc1ccnc2cc(Cl)ccc12 > 10 µM

Follow-up entry: COc1cc2c(cc1OC)CN(CCc1ccc(NC(=O)c3cccc4c(=O)c5cccc(OC)c5[nH]c34)cc1)CC2 > 10 µM

----------
test system: Vero E6; experiment: relative viability EC50 (midpoint between 100% and the lowest measured viability); higher = less toxic; conditions: 72 h
Entries and their relative viability EC50

compound=CCC(=O)O[C@@](Cc1ccccc1)(c1ccccc1)[C@@H](C)CN(C)C measurement_target="Vero E6" reported="> 10 µM"
compound="N=C(N)NC(=N)Nc1cccc(Cl)c1 [m-chlorophenylbiguanide]" measurement_target="Vero E6" reported="> 10 µM"
compound=CN(C)CC[C@@H](c1ccc(Cl)cc1)c1ccccn1 measurement_target="Vero E6" reported="> 10 µM"
compound="CCCCC(=O)O[C@]1(C(=O)CO)CC[C@H]2[C@@H]3CCC4=CC(=O)CC[C@]4(C)[C@H]3[C@@H](O)C[C@@]21C [hydrocortisone-valerate]" measurement_target="Vero E6" reported="> 10 µM"
compound="Cc1ccccc1C(=O)Nc1ccc(C(=O)N2CCCC(O)c3cc(Cl)ccc32)c(C)c1 (stereo not drawn)" measurement_target="Vero E6" reported="> 10 µM"
compound="O=C(Nc1ccc([N+](=O)[O-])cc1Cl)c1cc(Cl)ccc1O [niclosamide]" measurement_target="Vero E6" reported="3.34 µM"
compound=Cn1c(=O)cc(N2CCC[C@@H](N)C2)n(Cc2cc(F)ccc2C#N)c1=O measurement_target="Vero E6" reported="> 10 µM"

What is its relative viability EC50 for Vero E6? Entry: c1ccc(C(O[C@@H]2CCCN(CCc3ccc4c(c3)OCO4)C2)c2ccccc2)cc1 > 10 µM

----------
test system: Calu-3; assay: cell viability relative to DMSO; higher = less toxic; settings: 72 h; 100 nM
readout: cell viability (%)
# value in %; strip the unit string

Field: example entries. Status: answers known.
compound="COC(=O)C[C@H]1CC(c2ccc(O)cc2)=NO1 [ISO-1]" units_text=% reported=104
compound=Nc1ncnc2c1c(-c1ccc(Oc3ccccc3)cc1)nn2C1CCCC1 units_text=% reported=99
compound="COCC(=O)Nc1c(I)c(C(=O)NCC(O)CO)c(I)c(C(=O)N(C)CC(O)CO)c1I (stereo not drawn) [iopromide]" units_text=% reported=93.1
compound="C=CCNc1nc(NCC=C)nc(N2CCN(C(c3ccc(F)cc3)c3ccc(F)cc3)CC2)n1 [almitrine]" units_text=% reported=96.5
compound="O=C(OCCO)c1ccccc1O [2-hydroxyethyl-salicylate]" units_text=% reported=108
compound="CCC(=O)O[C@@](Cc1ccccc1)(c1ccccc1)[C@@H](C)CN(C)C [levopropoxyphene]" units_text=% reported=94.7
compound=Cc1c(N2C(=O)[C@@H]3[C@H](O)CCN3C2=O)ccc(C#N)c1Cl units_text=% reported=97.4
compound="CC(=O)Oc1ccccc1C(=O)O [aspirin]" units_text=% reported=94.1
compound="CCO[C@H]1O[C@@H]2O[C@@]3(C)CC[C@H]4[C@H](C)CC[C@@H]([C@H]1C)[C@@]24OO3 [artemotil]" units_text=% reported=95.4
compound="O=C(O)CNC(=O)C(CS)Cc1ccccc1 (stereo not drawn) [thiorphan]" units_text=% reported=98.6

Need cell viability of O=C(O)CCNC(=O)c1ccccc1 [betamipron] , thanks. 113

Further, for C[C@H](c1ccc2ccc(OC3CCC(C(F)(F)F)CC3)c(C(F)(F)F)c2c1)N1C2CCC1CC(C(=O)O)C2 (stereo partly drawn) [autotaxin-modulator-1] ? 100

Ok, now CCOC(=O)[C@@H](N)CCC(=O)N[C@@H](CSCc1ccccc1)C(=O)N[C@@H](C(=O)OCC)c1ccccc1 [ezatiostat] 106

Here is the next compound: CCOCC(O)COc1ccc(NC(=O)CC[S+](C)C)cc1 (stereo not drawn) [suplatast] 93.4

Quick one: C[C@]12CCC(=O)C[C@@H]1CC[C@@H]1[C@@H]2CC[C@]2(C)[C@@H](O)CC[C@@H]12 [Dihydrotestosterone] 101

From: the supplement of paper PMC13380429
